These measurements were taken from the RNAGym collection of RNA variant scans (doi:10.1073/pnas.2313332121).

Could you please report measured polymerase ribozyme fitness (log ratio) for the items listed next?
B1: TPR t1 (parent)
chain: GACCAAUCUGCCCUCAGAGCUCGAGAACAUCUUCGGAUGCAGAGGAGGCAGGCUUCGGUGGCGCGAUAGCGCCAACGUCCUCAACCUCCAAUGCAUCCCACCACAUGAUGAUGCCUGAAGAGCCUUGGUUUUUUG

# Variants of: B1
# Method summary: polymerase ribozyme fitness, log enrichment relative to wild type (log ratio); higher = more active; in vitro selection for triplet polymerase activity
Format: numeric value only, no unit, no commentary.

Need polymerase ribozyme fitness (log ratio) of G39U C73U , thanks. -1.52

Need polymerase ribozyme fitness (log ratio) of A103U U132A , thanks. -5.02

Need polymerase ribozyme fitness (log ratio) of G71A U130C , thanks. 0.53

Need polymerase ribozyme fitness (log ratio) of C8G G117C C124A , thanks. -0.905

Need polymerase ribozyme fitness (log ratio) of C11G A37U G42U , thanks. -0.864

Need polymerase ribozyme fitness (log ratio) of C11G G61C U78A U126A , thanks. -0.897

Need polymerase ribozyme fitness (log ratio) of G47C A108G U112A , thanks. -5.05

Need polymerase ribozyme fitness (log ratio) of U78C C80U C89U G117C A119G , thanks. -1.72

Need polymerase ribozyme fitness (log ratio) of C28U C49A C72A C114G , thanks. -5.7

Need polymerase ribozyme fitness (log ratio) of C15U G47U C49A C86A U106C , thanks. -2.3

Need polymerase ribozyme fitness (log ratio) of C3U C72A , thanks. -0.325

Need polymerase ribozyme fitness (log ratio) of G36A C53A U54G G120C , thanks. 0.74

Need polymerase ribozyme fitness (log ratio) of C12G G44U A90C A121U , thanks. 0.668

Need polymerase ribozyme fitness (log ratio) of C70U G113A U131A , thanks. -0.868

Need polymerase ribozyme fitness (log ratio) of A5G A26U U32C , thanks. -2.95

Need polymerase ribozyme fitness (log ratio) of A18G G48A G63A G77A U81C A121U U126G , thanks. -5.32

Need polymerase ribozyme fitness (log ratio) of G44A G51A C104U C115G A121C C124A , thanks. -5.73

Need polymerase ribozyme fitness (log ratio) of U112G A118G , thanks. 0.909

Need polymerase ribozyme fitness (log ratio) of C49A G57U G127U , thanks. -1.6

Need polymerase ribozyme fitness (log ratio) of C22U C72A A100C , thanks. -4.76

Need polymerase ribozyme fitness (log ratio) of G39U A41U C104U C123A , thanks. -2.95

Need polymerase ribozyme fitness (log ratio) of C40G A50U G63C , thanks. -2.25

Need polymerase ribozyme fitness (log ratio) of C34U U59A U106A U109A G120A , thanks. -5.08

Need polymerase ribozyme fitness (log ratio) of G44U G61A C99U , thanks. -4.01

Need polymerase ribozyme fitness (log ratio) of C62G A105G , thanks. -4.99

Need polymerase ribozyme fitness (log ratio) of C49U C56U , thanks. -0.758

Need polymerase ribozyme fitness (log ratio) of G39U A46G G63A C115G , thanks. -1.83

Need polymerase ribozyme fitness (log ratio) of A46C G120A , thanks. -0.00915

Need polymerase ribozyme fitness (log ratio) of A37C A103C , thanks. -4.98

Need polymerase ribozyme fitness (log ratio) of A5G A6C C11G C73A G93C , thanks. -1.55

Need polymerase ribozyme fitness (log ratio) of U78C A111G C124A , thanks. 1.04

Need polymerase ribozyme fitness (log ratio) of A5G A83C U126A , thanks. -1.99

Need polymerase ribozyme fitness (log ratio) of C3U G48U G61C G65U G71A , thanks. -4.29

Need polymerase ribozyme fitness (log ratio) of C72G C80U , thanks. -0.861

Need polymerase ribozyme fitness (log ratio) of G61A C73A C123A , thanks. -0.908

Need polymerase ribozyme fitness (log ratio) of G71A C99U , thanks. -3.17

Need polymerase ribozyme fitness (log ratio) of A90G A119U , thanks. 0.257

Need polymerase ribozyme fitness (log ratio) of C31U G135U , thanks. -4.94

Need polymerase ribozyme fitness (log ratio) of C89A G120U , thanks. -1.79

Need polymerase ribozyme fitness (log ratio) of A29G G57U G128C , thanks. -3.73

Need polymerase ribozyme fitness (log ratio) of C73A C101U G110U , thanks. -1.75

Need polymerase ribozyme fitness (log ratio) of G36U U112G G113U , thanks. -3.55

Need polymerase ribozyme fitness (log ratio) of C3U U14A , thanks. -2.47

Need polymerase ribozyme fitness (log ratio) of G47C U55C C56A G69U C86U C123A U132A , thanks. -1.54

Need polymerase ribozyme fitness (log ratio) of C53U G69U C73U , thanks. 0.0642

Need polymerase ribozyme fitness (log ratio) of U59A G61U A84U , thanks. -0.153

Need polymerase ribozyme fitness (log ratio) of A41C G61U C70G C101A A111C , thanks. -5.73

Need polymerase ribozyme fitness (log ratio) of C11G C88G G93C , thanks. -3.14

Need polymerase ribozyme fitness (log ratio) of C20A U112C , thanks. -1.35

Need polymerase ribozyme fitness (log ratio) of C12U G61C , thanks. -1.48

Need polymerase ribozyme fitness (log ratio) of C11G G51C , thanks. -4.46

Need polymerase ribozyme fitness (log ratio) of C40U A43U A90G G113U , thanks. -3.26

Need polymerase ribozyme fitness (log ratio) of C11G G39C A74U C115U , thanks. -2.3

Need polymerase ribozyme fitness (log ratio) of C22U C101A G122A , thanks. -6.14

Need polymerase ribozyme fitness (log ratio) of C8U G65A , thanks. -4.53

Need polymerase ribozyme fitness (log ratio) of C73G U116A , thanks. -3.66

Need polymerase ribozyme fitness (log ratio) of C15G U96G G120A , thanks. -1.53

Need polymerase ribozyme fitness (log ratio) of C72A C99U U109G , thanks. -6.16

Need polymerase ribozyme fitness (log ratio) of C64U C72U A90C C104A A111G G127A G135A , thanks. -4.26

Need polymerase ribozyme fitness (log ratio) of A95G C98U G113A A118G , thanks. -3.57

Need polymerase ribozyme fitness (log ratio) of C34A A74C C89G G113C A118C U131A , thanks. -5.57

Need polymerase ribozyme fitness (log ratio) of C13U C56U A90G , thanks. 0.402

Need polymerase ribozyme fitness (log ratio) of C94G G113A , thanks. -3.13

Need polymerase ribozyme fitness (log ratio) of C73U C114U C123A , thanks. -3.41

Need polymerase ribozyme fitness (log ratio) of C49A U81A A90U C123U , thanks. -1.24

Need polymerase ribozyme fitness (log ratio) of G57C C85G C114U A119C , thanks. -6.42

Need polymerase ribozyme fitness (log ratio) of C40A C86U , thanks. -1.9

Need polymerase ribozyme fitness (log ratio) of C20U U30A G39C C53U C56U G60C U92C G117U A119G , thanks. -6.79

Need polymerase ribozyme fitness (log ratio) of C56G G93A C115A C123U G128U , thanks. -4.6
